biological target: Glutamate receptor 4 (Homo sapiens); assay: Electrophysiological data on Xenopus oocytes, expressing homomeric Ionotropic glutamate receptor […] (GluR4o); format: cell-based, Xenopus laevis, Oocyte
Measured property: EC50 (µM)
Respond numerically; units are µM and should not be typed.

response.value for CC(C)(C)c1snc(O)c1C[C@H](N)C(=O)O (field: EC50) = 20

====

biological target: Glutamate receptor ionotropic, kainate; test: Ability to displace [3H]-kainic acid radioligand at kainate receptor in rat cortical membranes
Measured property: pIC50
# pIC50 = -log10(concentration in molar units)

response.value for CC(C)(C)c1snc(O)c1C[C@H](N)C(=O)O (field: pIC50) = 4.85

====

experiment: Ability to displace [3H]-CGP-39,653 radioligand at N-methyl-D-aspartate glutamate receptor in rat cortical membranes; assay type: cell membranes
Measured property: IC50

response.value for N[C@@H](CC1=CCCCc2onc(O)c21)C(=O)O (field: IC50) = > 100 µM

====

assay: Ability to displace [3H]CGP-39653 radioligand at N-methyl-D-aspartate glutamate receptor in rat cortical membranes; type: cell membranes
Measured property: IC50 (µM)
Respond numerically; units are µM and should not be typed.

response.value for N[C@H](CC1=CCCCc2onc(O)c21)C(=O)O (field: IC50) = 28

====

biological target: Glutamate receptor ionotropic, AMPA (Rattus norvegicus, UniProt P19490+P19491+P19492+P19493); assay: Ability to displace [3H]AMPA radioligand at Ionotropic glutamate receptor AMPA in rat cortical membranes
Measured property: pIC50
# pIC50 = -log10(concentration in molar units)

response.value for CC(C)(C)c1snc(O)c1C[C@H](N)C(=O)O (field: pIC50) = 6.57

====

Measured pEC50 of individual entries
target: Glutamate receptor ionotropic kainate 2 (Xenopus laevis, UniProt B9V8S1); experiment: Electrophysiological data on Xenopus oocytes, expressing heteromeric Ionotropic glutamate receptor ionotropic kainate 2; type: cell-based, Oocyte
Sequence (B9V8S1 whole entry): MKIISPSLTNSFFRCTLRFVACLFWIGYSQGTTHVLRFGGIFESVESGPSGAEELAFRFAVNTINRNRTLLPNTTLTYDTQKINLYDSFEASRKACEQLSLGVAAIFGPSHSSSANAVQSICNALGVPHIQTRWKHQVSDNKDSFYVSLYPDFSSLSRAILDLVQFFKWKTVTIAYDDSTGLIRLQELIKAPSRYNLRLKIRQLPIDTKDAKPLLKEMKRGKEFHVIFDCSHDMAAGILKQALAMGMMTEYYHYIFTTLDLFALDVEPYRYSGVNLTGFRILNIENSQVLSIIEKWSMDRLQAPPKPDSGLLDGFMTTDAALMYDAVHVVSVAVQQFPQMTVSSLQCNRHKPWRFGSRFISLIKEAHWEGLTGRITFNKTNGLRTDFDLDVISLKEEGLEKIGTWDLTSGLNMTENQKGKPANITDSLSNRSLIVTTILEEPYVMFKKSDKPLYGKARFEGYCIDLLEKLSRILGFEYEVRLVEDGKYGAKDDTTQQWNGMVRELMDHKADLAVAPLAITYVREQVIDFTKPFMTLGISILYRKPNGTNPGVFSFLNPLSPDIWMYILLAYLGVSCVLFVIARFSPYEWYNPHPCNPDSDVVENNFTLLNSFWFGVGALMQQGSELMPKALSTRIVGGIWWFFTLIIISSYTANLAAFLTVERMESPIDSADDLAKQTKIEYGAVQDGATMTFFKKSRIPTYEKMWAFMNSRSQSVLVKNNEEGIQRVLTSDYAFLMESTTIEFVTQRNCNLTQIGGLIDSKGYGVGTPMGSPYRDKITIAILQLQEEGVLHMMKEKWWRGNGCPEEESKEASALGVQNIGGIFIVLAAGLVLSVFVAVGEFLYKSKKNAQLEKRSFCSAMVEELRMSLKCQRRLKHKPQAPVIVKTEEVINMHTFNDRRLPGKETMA
# pEC50 = -log10(concentration in molar units)

* CC(C)(C)c1snc(O)c1C[C@H](N)C(=O)O | 5.31
* CC(C)(C)c1onc(O)c1C[C@H](N)C(=O)O | 4.21

Okay, now this compound:
response.value for N[C@@H](CC1=CCCCc2onc(O)c21)C(=O)O (field: pEC50) = 5.19

====

Measured pEC50 of individual entries
molecular target: UniProt P42261; test: Electrophysiological data on Xenopus oocytes, expressing homomeric Ionotropic glutamate receptor AMPA 1 (GluR1o)
Sequence (P42261 whole entry): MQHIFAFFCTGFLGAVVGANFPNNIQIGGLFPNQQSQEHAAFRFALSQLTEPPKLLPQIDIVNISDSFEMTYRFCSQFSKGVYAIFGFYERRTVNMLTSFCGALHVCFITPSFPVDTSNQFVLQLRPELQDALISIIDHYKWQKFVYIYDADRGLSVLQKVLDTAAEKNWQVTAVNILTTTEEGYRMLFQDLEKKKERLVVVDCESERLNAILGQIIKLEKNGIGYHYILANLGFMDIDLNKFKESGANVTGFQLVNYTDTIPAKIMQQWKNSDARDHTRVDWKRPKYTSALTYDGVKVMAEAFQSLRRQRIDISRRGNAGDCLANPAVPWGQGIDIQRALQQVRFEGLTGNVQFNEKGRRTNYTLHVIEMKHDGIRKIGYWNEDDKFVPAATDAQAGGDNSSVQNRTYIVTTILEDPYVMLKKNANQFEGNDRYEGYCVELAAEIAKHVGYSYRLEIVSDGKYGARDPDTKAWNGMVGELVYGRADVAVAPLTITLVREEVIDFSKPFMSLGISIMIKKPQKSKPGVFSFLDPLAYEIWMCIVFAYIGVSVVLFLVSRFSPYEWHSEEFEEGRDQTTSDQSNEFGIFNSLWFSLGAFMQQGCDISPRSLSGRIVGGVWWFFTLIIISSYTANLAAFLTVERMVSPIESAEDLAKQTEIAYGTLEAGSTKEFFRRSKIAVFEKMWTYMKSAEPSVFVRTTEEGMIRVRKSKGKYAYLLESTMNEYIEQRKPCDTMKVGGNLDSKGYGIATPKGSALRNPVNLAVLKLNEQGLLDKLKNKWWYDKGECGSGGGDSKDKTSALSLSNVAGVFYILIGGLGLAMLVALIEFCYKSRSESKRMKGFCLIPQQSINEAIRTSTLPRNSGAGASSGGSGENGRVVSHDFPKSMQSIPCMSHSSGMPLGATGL
# pEC50 = -log10(concentration in molar units)

Example entries and their recorded answers appear below.
• CC(C)(C)c1snc(O)c1C[C@H](N)C(=O)O = 5.28
• N[C@@H](CC1=CCCCc2onc(O)c21)C(=O)O = 5.35

response.value for CC(C)(C)c1onc(O)c1C[C@H](N)C(=O)O (field: pEC50) = 4.66

====

molecular target: Glutamate receptor 4 (Homo sapiens, UniProt P48058); assay: Electrophysiological data on Xenopus oocytes, expressing homomeric Ionotropic glutamate receptor AMPA 4 (GluR4o); assay type: cell-based, Xenopus laevis, Oocyte
Sequence (P48058 whole entry): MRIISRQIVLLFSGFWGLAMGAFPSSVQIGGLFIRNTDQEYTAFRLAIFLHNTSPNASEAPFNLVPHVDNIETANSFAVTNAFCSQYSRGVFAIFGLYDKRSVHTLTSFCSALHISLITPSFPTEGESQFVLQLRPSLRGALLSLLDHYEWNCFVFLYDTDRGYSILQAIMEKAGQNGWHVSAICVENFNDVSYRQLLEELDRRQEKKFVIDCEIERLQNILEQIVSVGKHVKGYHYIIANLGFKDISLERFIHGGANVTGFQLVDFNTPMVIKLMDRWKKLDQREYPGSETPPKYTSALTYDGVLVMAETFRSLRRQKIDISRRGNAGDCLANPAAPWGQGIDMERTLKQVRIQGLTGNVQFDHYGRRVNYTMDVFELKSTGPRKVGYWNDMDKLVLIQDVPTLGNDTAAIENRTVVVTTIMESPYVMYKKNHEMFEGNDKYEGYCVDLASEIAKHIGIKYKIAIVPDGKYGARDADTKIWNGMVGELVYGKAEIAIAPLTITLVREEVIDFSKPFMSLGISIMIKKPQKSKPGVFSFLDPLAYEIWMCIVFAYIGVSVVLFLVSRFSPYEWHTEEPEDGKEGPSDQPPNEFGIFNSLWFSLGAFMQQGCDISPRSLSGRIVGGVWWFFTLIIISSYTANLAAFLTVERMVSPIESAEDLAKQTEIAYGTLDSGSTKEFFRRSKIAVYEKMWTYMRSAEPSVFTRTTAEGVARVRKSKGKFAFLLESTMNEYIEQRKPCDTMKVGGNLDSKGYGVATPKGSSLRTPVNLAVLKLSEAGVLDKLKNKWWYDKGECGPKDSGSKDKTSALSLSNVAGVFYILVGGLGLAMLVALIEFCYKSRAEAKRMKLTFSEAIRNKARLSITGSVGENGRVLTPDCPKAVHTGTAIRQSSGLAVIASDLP
Measured property: EC50 (µM)
Respond numerically; units are µM and should not be typed.

response.value for CC(C)(C)c1onc(O)c1C[C@H](N)C(=O)O (field: EC50) = 7.6

response.value for N[C@@H](CC1=CCCCc2onc(O)c21)C(=O)O (field: EC50) = 15
